src = patent US20240239878A1

- TARGET: T1, human DLL3 antigen protein (Kactus Biosystems, Cat. No. DLL-HM103) (human, UniProt Q9NYJ7 27-492)
- T1 sequence: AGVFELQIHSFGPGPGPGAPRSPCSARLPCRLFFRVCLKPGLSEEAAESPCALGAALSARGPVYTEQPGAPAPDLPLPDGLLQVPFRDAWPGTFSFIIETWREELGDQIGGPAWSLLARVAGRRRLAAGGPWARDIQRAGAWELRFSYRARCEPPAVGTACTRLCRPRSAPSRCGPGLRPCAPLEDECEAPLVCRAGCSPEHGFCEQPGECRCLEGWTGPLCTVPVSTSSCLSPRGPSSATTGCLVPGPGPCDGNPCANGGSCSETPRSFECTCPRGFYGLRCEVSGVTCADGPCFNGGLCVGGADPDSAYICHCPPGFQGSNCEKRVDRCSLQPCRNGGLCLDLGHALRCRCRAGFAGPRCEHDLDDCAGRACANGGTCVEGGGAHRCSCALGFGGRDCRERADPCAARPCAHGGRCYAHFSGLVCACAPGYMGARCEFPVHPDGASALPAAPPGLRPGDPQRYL
- ASSAY PROTOCOL: SPR (Biacore 8K), antibody captured on anti-human Fc, DLL3 in solution
Below, each entry is listed with its recorded koff.
Please state the figure in s⁻¹; there is no need to write the unit.

[[record]]
binder = "hDLL3-3-1 camelid-derived humanized anti-DLL3 antibody (antibody, human IgG1, V domains shown) VH: EVQLVESGGGLVQPGGSLRLSCAASTYTISSGYMGWFRQAPGKEREGVAAIYIGGSTTLYADSVKGRFTISRDNSKNTLYLQMNSLRAEDTAVYYCAAQLRPNSAYHPLDGRKYNYWGQGTLVTVSS"
readout_units = "s⁻¹"
test_value = 0.00058

[[record]]
binder = "DLL3-122 camelid-derived anti-DLL3 chimeric antibody (antibody, human IgG1, V domains shown) VH: QVQLVESGGGSVQAGGSLRLSCTASGDTYRSYCMGWFRKAPGKEREGVADIVSDGSTSYADSVKGRFTISKDNAKNTLYLQMNSLKPEDTAMYYCAVDRGGSGGYCYTGRYDYWGQGTQVTVSS"
readout_units = "s⁻¹"
test_value = 0.000392

[[record]]
binder = "DLL3-3 camelid-derived anti-DLL3 chimeric antibody (antibody, human IgG1, V domains shown) VH: DVQLVESGGGSVQAGGSLKLSCKSPTYTISSGYMGWFRQAPGKEREGVAAIYIGGSTTLYADSVKGRFTISADNAEKTVYLQMNTLKPEDSAMYYCAAQLRPNSAYHPLDGRKYNYWGQGTQVTVSS"
readout_units = "s⁻¹"
test_value = 0.000274


--- query ---
Looking up DLL3-26 camelid-derived anti-DLL3 chimeric antibody (antibody, human IgG1, V domains shown) VH: QVQLVESGGGSVQAGGSLRLSCAASGDIYSSSYVGWFRQAPGKEREGVAIIYTSGDSTYYANSVKGRFTISQDKAKKTLYLQMNSLKPEDTAMYYCAARFAIDNSNYWGQGTQVTVSS , I found its koff recorded as 1.23e-05
